The origin of these recorded values is ChEMBL document CHEMBL3885881.

Species: Rattus norvegicus
protocol: DrugMatrix - Regimen: Daily Repeat
Format: toxicity, organism-based, Sprague-Dawley
Parameters: regimen Daily Repeat, gender Male, age 6-8 weeks
test_conditions: in vivo, iv, 0 mg/kg, 72 h, tissue Blood, dose level Control, time 3 day, vehicle 100 % SALINE
Starred links: 1 amine or outer side, 2 acyl side, 3 side chain; linkers in the order of their positions; H or OH if unused. Positions of bridges follow the written chain, without caps; N, C: chain ends. Non-standard residues stand in square brackets, D forms with d. Residues, ends and D or L forms follow the SMILES beside them. Chains are numbered I, II in the order given. Actinocin(9to1) = Cc1c2oc3c(C)ccc(C(=O)[*:1])c3nc-2c(C(=O)[*:2])c(N)c1=O; NMeV = CN[C@H](C(=O)O)C(C)C; Sar = CNCC(=O)O
outcome_measure: ABSOLUTE MONOCYTE (CELLS/uL)
Answers are plain numbers, in CELLS/uL.

Answered examples (2):
CC[C@]1(O)C[C@H]2CN(CCc3c([nH]c4ccccc34)[C@@](C(=O)OC)(c3cc4c(cc3OC)N(C=O)[C@H]3[C@@](O)(C(=O)OC)[C@H](OC(C)=O)[C@]5(CC)C=CCN6CC[C@]43[C@@H]65)C2)C1 = 67.83
Cc1ccc(N(CC2=NCCN2)c2cccc(O)c2)cc1 = 186.17

Consider the following items and state reported ABSOLUTE MONOCYTE for each.
1. COc1cc2c3cc1Oc1cc(ccc1O)C[C@@H]1c4c(cc(OC)c(O)c4Oc4ccc(cc4)C[C@@H]3N(C)CC2)CC[N+]1(C)C.[Cl-]
2. Cc1c2oc3c(C)ccc(C(=O)N[C@@H]4C(=O)N[C@H](C(C)C)C(=O)N5CCC[C@H]5C(=O)N(C)CC(=O)N(C)[C@@H](C(C)C)C(=O)O[C@@H]4C)c3nc-2c(C(=O)N[C@@H]2C(=O)N[C@H](C(C)C)C(=O)N3CCC[C@H]3C(=O)N(C)CC(=O)N(C)[C@@H](C(C)C)C(=O)O[C@@H]2C)c(N)c1=O [DACTINOMYCIN] (I: T[dV]P[Sar][NMeV] / II: T[dV]P[Sar][NMeV]; ester I:1-I:C, II:1-II:C; linker I:N-II:N via Actinocin(9to1))

[159, 243.5]
